Test system: Serum
experiment_notes: Stability of the compound in 5% fetal bovine serum at 50 uM up to 240 mins by RP-HPLC analysis
Format: ADME, cell-free, Bos taurus
details: cattle, 4 h
measured_quantity: Stability

molecular_string: C[n+]1cn([C@@H]2O[C@H](CO[P@](=O)(S)OP(=O)([O-])CP(=O)(O)O)[C@@H](O)[C@H]2O)c2nc(N)nc(O)c21.N.N.N.N
measured_quantity: Stability
experimental_result: Stable

molecular_string: C[n+]1cn([C@@H]2O[C@H](CO[P@@](=O)(S)OP(=O)([O-])OP(=O)(O)O)[C@@H](O)[C@H]2O)c2nc(N)nc(O)c21.N.N.N.N
measured_quantity: Stability
experimental_result: Stable

molecular_string: C[n+]1cn([C@@H]2O[C@H](COP(=O)([O-])OP(=O)(O)OP(=O)(O)O)[C@@H](O)[C@H]2O)c2nc(N)[nH]c(=O)c21
measured_quantity: Stability
experimental_result: Unstable

molecular_string: C[n+]1cn([C@@H]2O[C@H](CO[P@](=O)(S)OP(=O)([O-])OP(=O)(O)O)[C@@H](O)[C@H]2O)c2nc(N)nc(O)c21.N.N.N.N
measured_quantity: Stability
experimental_result: Stable

molecular_string: C[n+]1cn([C@@H]2O[C@H](CO[P@@](=O)(S)OP(=O)([O-])CP(=O)(O)O)[C@@H](O)[C@H]2O)c2nc(N)nc(O)c21.N.N.N.N
measured_quantity: Stability
experimental_result: Unstable

---

system_tested: Eukaryotic translation initiation factor 4E (Oryctolagus cuniculus)
experiment_notes: Inhibition of eIF4E-mediated translation in flexi rabbit reticulocyte lysate using luciferase mRNA by luminescence based luciferase assay relative to m7GpppG

molecular_string: C[n+]1cn([C@@H]2O[C@H](COP(=O)(O)OP(=O)(O)OP(=O)(O)OP(=O)(O)OC[C@H]3O[C@@H](n4c[n+](C)c5c([O-])nc(N)nc54)[C@H](O)[C@@H]3O)[C@@H](O)[C@H]2O)c2nc(N)nc([O-])c21
Ratio: 3.14
//
molecular_string: C[n+]1cn([C@@H]2O[C@H](CO[P@](=O)(S)OP(=O)([O-])CP(=O)([O-])O[P@](=O)(S)OC[C@H]3O[C@@H](n4c[n+](C)c5c(O)nc(N)nc54)[C@H](O)[C@@H]3O)[C@@H](O)[C@H]2O)c2nc(N)nc(O)c21
Ratio: 1.56
//
molecular_string: B[P@](=O)(OC[C@H]1O[C@@H](n2c[n+](C)c3c(O)nc(N)nc32)[C@H](O)[C@@H]1O)OP(=O)([O-])CP(=O)([O-])O[P@@](B)(=O)OC[C@H]1O[C@@H](n2c[n+](C)c3c(O)nc(N)nc32)[C@H](O)[C@@H]1O
Ratio: 0.85
//
molecular_string: C[n+]1cn([C@@H]2O[C@H](CO[P@](=O)(S)OP(=O)([O-])CP(=O)([O-])O[P@@](=O)(S)OC[C@H]3O[C@@H](n4c[n+](C)c5c(O)nc(N)nc54)[C@H](O)[C@@H]3O)[C@@H](O)[C@H]2O)c2nc(N)nc(O)c21
Ratio: 1.86

---

system_tested: UniProt:P06730
Sequence (P06730 whole entry): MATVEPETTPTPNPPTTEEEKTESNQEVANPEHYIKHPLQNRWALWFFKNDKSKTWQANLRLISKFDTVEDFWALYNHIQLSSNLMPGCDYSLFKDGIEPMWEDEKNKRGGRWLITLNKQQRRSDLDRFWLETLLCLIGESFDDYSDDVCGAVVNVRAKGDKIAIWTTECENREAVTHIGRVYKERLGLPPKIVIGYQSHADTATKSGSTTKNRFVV
Each entry falls in a class defined on Ka; the bands are 0 = under 40 µM⁻¹, 1 = from 40 µM⁻¹ up to 100 µM⁻¹, 2 = 100 µM⁻¹ and over

molecular_string: B[P@@](=O)(OC[C@H]1O[C@@H](n2c[n+](C)c3c(O)nc(N)nc32)[C@H](O)[C@@H]1O)OP(=O)([O-])OP(=O)(O)O.N.N.N.N
assigned_label: 2
//
molecular_string: C[n+]1cn([C@@H]2O[C@H](CO[P@@](=O)(S)OP(=O)([O-])OP(=O)(O)O)[C@@H](O)[C@H]2O)c2nc(N)nc(O)c21.N.N.N.N
assigned_label: 2
//
molecular_string: B[P@](=O)(OC[C@H]1O[C@@H](n2c[n+](C)c3c(O)nc(N)nc32)[C@H](O)[C@@H]1O)OP(=O)([O-])CP(=O)(O)O.N.N.N.N
assigned_label: 0
//
molecular_string: C[n+]1cn([C@@H]2O[C@H](CO[P@](=O)(S)OP(=O)([O-])OP(=O)(O)O)[C@@H](O)[C@H]2O)c2nc(N)nc(O)c21.N.N.N.N
assigned_label: 2
//
molecular_string: C[n+]1cn([C@@H]2O[C@H](COP(=O)(O)OP(=O)(O)CP(=O)(O)O)[C@@H](O)[C@H]2O)c2nc(N)nc([O-])c21
assigned_label: 0
//
molecular_string: C[n+]1cn([C@@H]2O[C@H](COP(=O)(O)OP(=O)([O-])OP(=O)(O)OC[C@H]3O[C@@H](n4cnc5c(=O)[nH]c(N)nc54)[C@H](O)[C@@H]3O)[C@@H](O)[C@H]2O)c2nc(N)nc(O)c21
assigned_label: 0
//
molecular_string: C[n+]1cn([C@@H]2O[C@H](CO[P@@](=O)(S)OP(=O)([O-])CP(=O)(O)O)[C@@H](O)[C@H]2O)c2nc(N)nc(O)c21.N.N.N.N
assigned_label: 1
//
molecular_string: B[P@](=O)(OC[C@H]1O[C@@H](n2c[n+](C)c3c(O)nc(N)nc32)[C@H](O)[C@@H]1O)OP(=O)([O-])OP(=O)(O)O.N.N.N.N
assigned_label: 2
//
molecular_string: C[n+]1cn([C@@H]2O[C@H](CO[P@](=O)(S)OP(=O)([O-])CP(=O)(O)O)[C@@H](O)[C@H]2O)c2nc(N)nc(O)c21.N.N.N.N
assigned_label: 1
//
molecular_string: B[P@@](=O)(OC[C@H]1O[C@@H](n2c[n+](C)c3c(O)nc(N)nc32)[C@H](O)[C@@H]1O)OP(=O)([O-])CP(=O)(O)O.N.N.N.N
assigned_label: 0

---

system_tested: m7GpppX diphosphatase (Homo sapiens, UniProt Q96C86)
Sequence (Q96C86 whole entry): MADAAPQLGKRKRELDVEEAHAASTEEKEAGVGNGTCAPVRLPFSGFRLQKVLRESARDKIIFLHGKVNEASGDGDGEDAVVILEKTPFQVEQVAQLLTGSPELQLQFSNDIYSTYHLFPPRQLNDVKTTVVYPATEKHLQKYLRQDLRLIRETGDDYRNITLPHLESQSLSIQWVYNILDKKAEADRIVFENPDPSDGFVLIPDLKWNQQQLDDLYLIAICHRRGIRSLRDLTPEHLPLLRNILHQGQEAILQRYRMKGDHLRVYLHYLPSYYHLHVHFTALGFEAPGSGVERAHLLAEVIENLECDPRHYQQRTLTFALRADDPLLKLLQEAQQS
experiment_notes: Stability of the compound assessed as human DcpS-mediated compound hydrolysis at 40 uM after 10 to 180 mins by HPLC analysis
Type: ADME
measured_quantity: Stability

molecular_string: B[P@@](=O)(OC[C@H]1O[C@@H](n2c[n+](C)c3c(O)nc(N)nc32)[C@H](O)[C@@H]1O)OP(=O)([O-])OP(=O)(O)O.N.N.N.N
measured_quantity: Stability
experimental_result: Unstable
--
molecular_string: B[P@](=O)(OC[C@H]1O[C@@H](n2c[n+](C)c3c(O)nc(N)nc32)[C@H](O)[C@@H]1O)OP(=O)([O-])OP(=O)(O)O.N.N.N.N
measured_quantity: Stability
experimental_result: Unstable
--
molecular_string: C[n+]1cn([C@@H]2O[C@H](CO[P@@](=O)(S)OP(=O)([O-])OP(=O)(O)O)[C@@H](O)[C@H]2O)c2nc(N)nc(O)c21.N.N.N.N
measured_quantity: Stability
experimental_result: Unstable
--
molecular_string: B[P@@](=O)(OC[C@H]1O[C@@H](n2c[n+](C)c3c(O)nc(N)nc32)[C@H](O)[C@@H]1O)OP(=O)([O-])CP(=O)(O)O.N.N.N.N
measured_quantity: Stability
experimental_result: Unstable
--
molecular_string: C[n+]1cn([C@@H]2O[C@H](CO[P@@](=O)(S)OP(=O)([O-])CP(=O)(O)O)[C@@H](O)[C@H]2O)c2nc(N)nc(O)c21.N.N.N.N
measured_quantity: Stability
experimental_result: Unstable
--
molecular_string: C[n+]1cn([C@@H]2O[C@H](COP(=O)([O-])OP(=O)(O)OP(=O)(O)O)[C@@H](O)[C@H]2O)c2nc(N)[nH]c(=O)c21
measured_quantity: Stability
experimental_result: Stable
--
molecular_string: B[P@](=O)(OC[C@H]1O[C@@H](n2c[n+](C)c3c(O)nc(N)nc32)[C@H](O)[C@@H]1O)OP(=O)([O-])CP(=O)(O)O.N.N.N.N
measured_quantity: Stability
experimental_result: Unstable
--
molecular_string: C[n+]1cn([C@@H]2O[C@H](COP(=O)(O)OP(=O)([O-])OP(=O)(O)OC[C@H]3O[C@@H](n4cnc5c(=O)[nH]c(N)nc54)[C@H](O)[C@@H]3O)[C@@H](O)[C@H]2O)c2nc(N)[nH]c(=O)c21
measured_quantity: Stability
experimental_result: Stable
--
molecular_string: C[n+]1cn([C@@H]2O[C@H](CO[P@](=O)(S)OP(=O)([O-])CP(=O)(O)O)[C@@H](O)[C@H]2O)c2nc(N)nc(O)c21.N.N.N.N
measured_quantity: Stability
experimental_result: Unstable
--
molecular_string: C[n+]1cn([C@@H]2O[C@H](CO[P@](=O)(S)OP(=O)([O-])OP(=O)(O)O)[C@@H](O)[C@H]2O)c2nc(N)nc(O)c21.N.N.N.N
measured_quantity: Stability
experimental_result: Unstable
